# system: T1, Human CD3eg linker (human)
# T1 construct: single-chain construct; also called recombinant human CD3
# T1 chain: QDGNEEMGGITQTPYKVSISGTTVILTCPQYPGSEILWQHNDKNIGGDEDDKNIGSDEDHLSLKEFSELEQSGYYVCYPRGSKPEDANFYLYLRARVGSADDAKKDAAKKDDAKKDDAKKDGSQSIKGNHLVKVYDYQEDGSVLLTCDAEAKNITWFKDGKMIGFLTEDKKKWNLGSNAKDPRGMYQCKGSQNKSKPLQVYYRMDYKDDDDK
# test.description: SPR, vs unmutated H183/L072
The following binders are listed with their measured fold change of affinity values.

| binder | fold change of affinity |
| --- | --- |
| dBBDu183H S100aD/dBBDu072L (antibody, name in Kabat numbering, V domains shown) VH: QVQLVESGGGLVQPGRSLRLSCAASGFTFSNAWMHWVRQAPGKGLEWVAQIKDKGNAYAAYYAPSVKGRFTISRDDSKNSIYLQMNSLKTEDTAVYYCHYVHYASADTVLPAFGVDAWGQGTTVTVSS VL: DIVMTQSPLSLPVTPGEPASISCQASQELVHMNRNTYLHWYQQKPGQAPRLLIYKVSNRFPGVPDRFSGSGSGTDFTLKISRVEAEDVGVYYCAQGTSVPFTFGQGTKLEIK | 0.6 fold |
| dBBDu183H G65D/dBBDu072L (antibody, name in Kabat numbering, V domains shown) VH: QVQLVESGGGLVQPGRSLRLSCAASGFTFSNAWMHWVRQAPGKGLEWVAQIKDKGNAYAAYYAPSVKDRFTISRDDSKNSIYLQMNSLKTEDTAVYYCHYVHYASASTVLPAFGVDAWGQGTTVTVSS VL: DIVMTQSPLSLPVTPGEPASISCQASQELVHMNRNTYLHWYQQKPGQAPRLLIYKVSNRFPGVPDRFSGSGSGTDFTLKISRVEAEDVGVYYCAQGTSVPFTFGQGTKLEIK | 1 fold |
| dBBDu183H V95T/dBBDu072L (antibody, name in Kabat numbering, V domains shown) VH: QVQLVESGGGLVQPGRSLRLSCAASGFTFSNAWMHWVRQAPGKGLEWVAQIKDKGNAYAAYYAPSVKGRFTISRDDSKNSIYLQMNSLKTEDTAVYYCHYTHYASASTVLPAFGVDAWGQGTTVTVSS VL: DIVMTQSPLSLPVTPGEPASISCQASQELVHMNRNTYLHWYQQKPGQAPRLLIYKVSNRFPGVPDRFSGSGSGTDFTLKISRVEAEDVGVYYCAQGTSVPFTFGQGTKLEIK | 0 fold |
| dBBDu183H V95R/dBBDu072L (antibody, name in Kabat numbering, V domains shown) VH: QVQLVESGGGLVQPGRSLRLSCAASGFTFSNAWMHWVRQAPGKGLEWVAQIKDKGNAYAAYYAPSVKGRFTISRDDSKNSIYLQMNSLKTEDTAVYYCHYRHYASASTVLPAFGVDAWGQGTTVTVSS VL: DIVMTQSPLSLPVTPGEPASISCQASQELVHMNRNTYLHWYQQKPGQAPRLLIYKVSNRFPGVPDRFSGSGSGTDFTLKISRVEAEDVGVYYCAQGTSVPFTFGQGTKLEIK | 0 fold |
| dBBDu183H V63K/dBBDu072L (antibody, name in Kabat numbering, V domains shown) VH: QVQLVESGGGLVQPGRSLRLSCAASGFTFSNAWMHWVRQAPGKGLEWVAQIKDKGNAYAAYYAPSKKGRFTISRDDSKNSIYLQMNSLKTEDTAVYYCHYVHYASASTVLPAFGVDAWGQGTTVTVSS VL: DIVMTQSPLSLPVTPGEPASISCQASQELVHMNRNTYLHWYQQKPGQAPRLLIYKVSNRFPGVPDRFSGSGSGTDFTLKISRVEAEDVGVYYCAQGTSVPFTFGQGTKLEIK | 1.3 fold |
